Each item that follows carries a reported Dose.FC.CTG.
System: ENR+CD organoids
Assay: Primary screen: ATP (CellTiter-Glo 3D, CTG) cell number/viability, 2.5-D 384-well ENR+CD organoids;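 further: compounds given at plating and again on day 3 over a 6-day differentiation from ENR+CV stem-cell-enriched precursors, ATP measured on day 6, plate median as control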
Conditions: primary screen; dose 2.00 uM; FC vs plate median

[
  {
    "molecule": "COc1ccc(-c2cnc3c(-c4cccc5ncccc45)cnn3c2)cc1",
    "system name": "ENR+CD organoids",
    "Dose.FC.CTG, log2 fold change": 0.137
  },
  {
    "molecule": "CCC(CC)(NC(=O)C(C)C)C(=O)N[C@@H](CCCN=C(N)N)C(=O)NC1(C(=O)NC(c2ccc(F)cc2)c2ccc(F)cc2)CCCC1",
    "system name": "ENR+CD organoids",
    "Dose.FC.CTG, log2 fold change": "−0.233"
  },
  {
    "molecule": "O=C(O)Cn1nnc(-c2cc(N3CCC(Oc4cc(F)ccc4Br)CC3)no2)n1",
    "system name": "ENR+CD organoids",
    "Dose.FC.CTG, log2 fold change": "−0.021"
  },
  {
    "molecule": "CCCCCCCCCCCCCCCCn1cc[n+](Cc2ccccc2)c1C.[I-]",
    "system name": "ENR+CD organoids",
    "Dose.FC.CTG, log2 fold change": "−1.106"
  },
  {
    "molecule": "CC(C)(Cc1ccc2ccccc2c1)NC[C@@H](O)COc1cccc(Cl)c1C#N",
    "system name": "ENR+CD organoids",
    "Dose.FC.CTG, log2 fold change": "−0.246"
  },
  {
    "molecule": "Nc1ncnc2c1c(-c1cccc(OCc3ccccc3)c1)cn2C1CC(CN2CCCC2)C1 (stereo not shown)",
    "system name": "ENR+CD organoids",
    "Dose.FC.CTG, log2 fold change": 0.257
  },
  {
    "molecule": "NCC(=O)Nc1ccc(-n2nc(C(F)(F)F)cc2-c2ccc3c(ccc4ccccc43)c2)cc1",
    "system name": "ENR+CD organoids",
    "Dose.FC.CTG, log2 fold change": 0.233
  },
  {
    "molecule": "Nc1cccc2c1C(=O)N(C1CCC(=O)NC1=O)C2=O (stereo not shown) [Pomalidomide]",
    "system name": "ENR+CD organoids",
    "Dose.FC.CTG, log2 fold change": "−0.216"
  },
  {
    "molecule": "Cc1sc2c(c1C)C(c1ccc(Cl)cc1)=N[C@@H](CC(=O)Nc1ccc(O)cc1)c1nnc(C)n1-2",
    "system name": "ENR+CD organoids",
    "Dose.FC.CTG, log2 fold change": "−0.686"
  },
  {
    "molecule": "Cc1[nH]c2ccccc2c1CCNCc1ccc(/C=C/C(=O)NO)cc1",
    "system name": "ENR+CD organoids",
    "Dose.FC.CTG, log2 fold change": "−0.537"
  },
  {
    "molecule": "CCCC(=O)Nc1cccc(NC(=O)c2ccccc2Br)c1",
    "system name": "ENR+CD organoids",
    "Dose.FC.CTG, log2 fold change": 0.066
  },
  {
    "molecule": "COc1ccc(CNCc2cccc3ccccc23)cc1.Cl [ML133 HCl]",
    "system name": "ENR+CD organoids",
    "Dose.FC.CTG, log2 fold change": "−0.247"
  },
  {
    "molecule": "O=C(NOC[C@H](O)CO)c1ccc(F)c(F)c1Nc1ccc(I)cc1F",
    "system name": "ENR+CD organoids",
    "Dose.FC.CTG, log2 fold change": "−0.867"
  },
  {
    "molecule": "COc1ccccc1S(=O)(=O)Nc1ccc2c(c1)CN(C)C(=O)N2",
    "system name": "ENR+CD organoids",
    "Dose.FC.CTG, log2 fold change": 0.322
  },
  {
    "molecule": "Cc1cn(-c2cc(NC(=O)c3ccc(C)c(Nc4nccc(-c5cccnc5)n4)c3)cc(C(F)(F)F)c2)cn1 [Nilotinib (AMN-107), Nilotinib, reference compound]",
    "system name": "ENR+CD organoids",
    "Dose.FC.CTG, log2 fold change": 0.242
  },
  {
    "molecule": "CC[C@@H]1/C=C/C=C/C[C@H](C)[C@H](O)[C@](C)(O)C(=O)[C@H](C)[C@@H](O)[C@H](C)C(=O)[C@H](C)[C@@H](O)[C@H](C)/C=C/C(=O)O[C@H]2[C@@H](C)[C@@H](CC1)O[C@@]1(CC[C@@H](C)[C@@H](C[C@H](C)O)O1)[C@@H]2C",
    "system name": "ENR+CD organoids",
    "Dose.FC.CTG, log2 fold change": "−0.946"
  }
]
